Origin of measurements: PubChem BioAssay (NCI)

- Test system: CAKI-1 renal
- method_notes: NCI tumour cell line growth inhibition, 48 h
value_type: TGI

Exercise: Query: TGI; subject: Nc1ccn(C2CC(O)C(COP(O)(=S)OC3CC(n4ccc(N)nc4=O)OC3CO)O2)c(=O)n1 (stereo unspecified)
Key: > 100 µM

Exercise: Query: TGI; subject: COc1cccc(C2=C(c3cn(C)c4ccccc34)C(=O)NC2=O)c1
Key: > 25 µM

Exercise: Query: TGI; subject: CCCCCCn1c(SCC)c2ccccc2c1-c1nc(F)nc(F)n1
Key: > 100 µM

Exercise: Query: TGI; subject: Fc1ccc(-c2nc3n(c2-c2ccncc2)CCS3)cc1
Key: > 25 µM

Exercise: Query: TGI; subject: CCCN(Cc1ccc(F)cc1)c1ccc(CO)c(Cl)c1
Key: 13.6 µM

Exercise: Query: TGI; subject: Cc1c2cnccc2c(C)c2c1[nH]c1ccc(O)cc12
Key: > 10 µM

====

Assign TGI to each entry below.
- System: HCT-116 colon
- method_notes: NCI tumour cell line growth inhibition, 48 h
Give a bare numeral; the unit µM is implied.

Exercise: Query: TGI; subject: Fc1ccc2[nH]cc(Cc3c[nH]c4ccc(F)cc34)c2c1
Key: 43.3

Exercise: Query: TGI; subject: Nc1nc(/C=C\c2ccc([N+](=O)[O-])o2)nc(N2CCN(c3ccccc3)CC2)n1
Key: 12.2

Exercise: Query: TGI; subject: Cc1nn2c(=O)c([N+](=O)[O-])c(/C=C/c3ccccc3)nc2s1
Key: 15.4

====

Assign TGI to each entry below.
- Test system: NCI-H460 lung
- method_notes: NCI tumour cell line growth inhibition, 48 h

Exercise: Query: TGI; subject: Cn1c(O)c(C(=O)Nc2cccs2)c(=O)[nH]c1=S
Key: 43.7 µM

Exercise: Query: TGI; subject: CCc1c(C)[nH]c(/C=C2\N=C(c3ccc[nH]3)C=C2OC)c1C
Key: 10.8 µM

Exercise: Query: TGI; subject: CCOC(=O)CSc1ccnc(=O)[nH]1
Key: > 100 µM

Exercise: Query: TGI; subject: C=C(C)[C@@H]1CC[C@]2(C(=O)NCCCN)CC[C@]3(C)[C@H](CC[C@@H]4[C@@]5(C)CC[C@H](O)C(C)(C)[C@@H]5CC[C@]43C)[C@@H]12
Key: > 100 µM

Exercise: Query: TGI; subject: O=C(O)c1c[nH]c2c(Sc3ccccc3)nccc2c1=O
Key: > 100 µM

Exercise: Query: TGI; subject: COC(=O)[C@H](Cc1ccccc1)NC(=O)NCCN(CCNC(=O)N[C@@H](Cc1ccccc1)C(=O)OC)C(=O)N[C@@H](Cc1ccccc1)C(=O)OC
Key: 34.8 µM

Exercise: Query: TGI; subject: O=C(O)C(=C\c1ccc2c(c1)OCO2)/C(=C/c1ccc2c(c1)OCO2)C(=O)O
Key: > 100 µM

Exercise: Query: TGI; subject: CN(C)c1ccc(-c2c(C#N)c(N)[nH]c(=S)c2C#N)cc1
Key: > 100 µM

Exercise: Query: TGI; subject: CCCCCC(=O)Nc1n[nH]nc1C(N)=O
Key: > 100 µM

Exercise: Query: TGI; subject: Cc1c(C#N)c2nnn(C)c(=O)n2c1-c1ccccc1
Key: > 100 µM
